Data credit: ChEMBL document CHEMBL1158749

Test system: HL-60
Assay: Cytotoxicity against human HL60 cells by MTT assay
Format: functional, cell-based
metric: IC50

Example molecules with recorded IC50:
>>> observedresult("C=C1C(=O)O[C@@H]2[C@@H]1C[C@@H]1O[C@]1(C)CC/C=C(\\C)CC/C=C(\\C)[C@@H]2O [SINULAROLIDE E]")
"6 µg/mL"
>>> observedresult("C=C1C(=O)O[C@@H]2[C@@H]1C[C@H](O)[C@@](O)(CO)CC/C=C(\\C)CC/C=C(\\C)[C@@H]2O [SINULAROLIDE A]")
"> 10 µg/mL"
>>> observedresult("C=C1C(=O)O[C@H]2C/C(C)=C/CC/C(C)=C/CC[C@@]3(CO)O[C@@H]3C[C@H]12 [SINULAROLIDE D]")
"2.3 µg/mL"
>>> observedresult("C=C1C(=O)O[C@@H]2[C@@H]1C[C@H]1O[C@]1(CO)CC/C=C(\\C)CC/C=C(\\C)[C@@H]2O [SINULAROLIDE C]")
"5.1 µg/mL"

For the next question, use this molecule.
Tell us which IC50 value is on record for C=C1C(=O)O[C@@H]2[C@@H]1C[C@H]1O[C@]1(CO)CC/C=C(\C)CC/C=C(\C)[C@H]2O [SINULAROLIDE B]
5.2 µg/mL

---

Tested on: BGC-823
Assay: Cytotoxicity against human BGC823 cells by SRB assay
Assay type: functional, cell-based
metric: IC50 (µg/mL)
The reply should contain only the number, in µg/mL.

Example cases with answers are listed next.
>>> observedresult("C=C1C(=O)O[C@@H]2[C@@H]1C[C@H]1O[C@]1(CO)CC/C=C(\\C)CC/C=C(\\C)[C@H]2O [SINULAROLIDE B]")
6.3
>>> observedresult("C=C1C(=O)O[C@@H]2[C@@H]1C[C@@H]1O[C@]1(C)CC/C=C(\\C)CC/C=C(\\C)[C@@H]2O [SINULAROLIDE E]")
8.6
>>> observedresult("C=C1C(=O)O[C@@H]2[C@@H]1C[C@H]1O[C@]1(CO)CC/C=C(\\C)CC/C=C(\\C)[C@@H]2O [SINULAROLIDE C]")
5.2

Okay, next one:
Dear colleague, please send me the reported IC50 for C=C1C(=O)O[C@H]2C/C(C)=C/CC/C(C)=C/CC[C@@]3(CO)O[C@@H]3C[C@H]12 [SINULAROLIDE D] when you can.
6.1
